PROTOCOL SUMMARY: label from the status in PepcDB records;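 note: failed if final PepcDB status was selected cloned or expressed and not failed if soluble or beyond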
MEASURED ATTRIBUTE: protein production

The following sequences have reported results that may help.
{"SEQUENCE TEXT": "MDNEMNYGSDYKFIPATSIESGHGIEVLRDLFCYTIQIVNICFVGNPETNDFVLVDAGMPKCANEIISIAKDRFGTNSRPKAIILTHGHFDHVGGIIELIKHWDVHVYAHQMEIPFLTGQQSYPEPDPTVEGGMVAKMSPLFPNEPIDLGNNVKALPTDGTVPHMPEFRWIHTPGHTPGHISLFREKDRTLIAGDAFVTVKQEYLYKVITQEQEISGPPRYLTTDWKAAKESVLKLEKLKPLTAVTGHGIPMSGELLSTSLKTLVQEFDKIAVPDYGKYIDKKMHLEHHHHHH", "MEASURED ATTRIBUTE": "protein production", "MEAS VALUE": "not failed"}
{"SEQUENCE TEXT": "MRDLVSCFSENSINVTHPLSISSSSSSCSKYSTNNVCISPSLIPSIQTSITSIYRITLSKHLIIKVTWCNPHNNNGLSISVASADQNPSTTLKLNTSSRFFRKKKGNKSVDSDLGKIEVFWDLSSAKYDSNLCGPEPINGFYVIVLVDGQMGLLLGDSSEETLRKKGFSGDIGFDFSLVSRQEHFTGNNTFYSTKVRFVETGDSHEIVIRCNKETEGLKQSNHYPVLSVCIDKKTVIKVKRLQWNFRGNQTIFLDGLLVDLMWDVHDWFFSNQGACGRAVFMFRTRNGLDSSRLWLEEKIVKKDQQDKLDFSLFIYACKT", "MEASURED ATTRIBUTE": "protein production", "MEAS VALUE": "failed"}
{"SEQUENCE TEXT": "MPNGPTCAARRARARSALVGGEGFRMEWSGKRVSDGSATRPTVAAWVSGGFGSGESVAAFKALATEAEAGDASAQRRLGLCFRDGLGTDRDIHRAKAWYQRSAAQNDPMAALELGLMLESGLGISSDHGEAGKWYRVALDLWRDRAEGGDALGQFVLGLCHEVGAGVPAAHREALKWYGRSAERGCAHAQWALGRLHEDGLGVVRDYSEAVRCYRAAAFQGHARACFNLGLMAELGLGMVRDADCSASWYGKALEVWRRWAELGDPAAATALAAMYEAGHGVAKDYAVAVCWYRRAARQGNPLAQFELGRLSMEGRGVERNDVEAVGWFRLAAERGHADAQFHLGLMHEHGRGVTRRFEEAFRWYDKAADEGPARRWDAFHRLVPAAGEVPEGCGLGAW", "MEASURED ATTRIBUTE": "protein production", "MEAS VALUE": "failed"}
{"SEQUENCE TEXT": "MTADKISPDMLRFERILAAPAATVWQYLVDPELRARWFMSGPTDLQVGGAFGLTMDHDRLSDEVVPTPDRYKPYVGHRWHERITRYEPPHLLAFTWEDGKAGEVTFALTEIDSGTTRLVLTHTGLRGSEDALNFGGGWHAHLAVLEKRIAGISIPDFWALHAVAEREMEIALVSEA", "MEASURED ATTRIBUTE": "protein production", "MEAS VALUE": "failed"}

Consider the following items and state reported protein production for each.
1. MNDGDGTPAAAARERRFGPLGTALVIIPTYNEAENIKAIVTRVREAVPEAHVLVADDNSPDGTGKLADELAAADDHVQVMHRKGKEGLGAAYLAGFRWGLEHGYGVLIEMDADGSHQPEELPRLLTALKGADLVLGSRWVPGGRVVNWPKSREIISRGGSMYSRIALDLPLRDITGGYRAFRRETLEGLGLEEVASQGYCFQVDLARRAIKAGYHVVEVPITFVERELGDSKMSRDILVEALWRVTTWGVGERVGKVLGRDRRSGTAADGQTASSGTDGRTASSDRSTDSLDESAKASDAKA
2. MHQQTLWLFSGIALVLIIATLISETLRWRARERPSAVLDNLVARIRAWWVMAAVVGLAFVFGRAGVIGLFALVSLFALREFITLTPTRRGDYYALLAAFYVVLPWQYGLVWTGWYGLYTLLIPVYAFLVLPILATIGGDTTRYLERTAKVQWGLMICVFCISHVPALLNLDIPGYAGRNLLLIAFLVIVVQSSDVLQYVWGKLAGRHLIAPKLSPSKTVEGFIGGVVSASLLGMALWWITPFAPWHAFGLALVANLMGFFGGLVMSAIKRDRGIKDWGHMIEGHGGVLDRLDSVCFAAPVFFHLIRYGWA
3. MDTEADLFYRQLPKVELHAHLNGSVSFETMEKLIKRKPHLNIEHSMTAIRRGQRRTLDECFQVFKVIHQLVDSEEDILMVAKSVIQEFAADGVKYLELRSTPREVTETGLSKQRYIETVLEAIRQCKQEGVDIDVRFLVAVDRRHGPEVAMQTVKLAEDFLLSSDGTVVGLDLSGDPTVGHGKDLLAALQKAKNCGLKLALHLSEVPSQIDETELLLNLPPDRIGHGTFLHPDVGGSDSLVDKVCKQNIPIEICLTSNVKGQTVPSYDKHHFKYWYNRGHPCVLCTDDKGVFCTDLSQEYQLAASTFGLTKEAVWILSQQAIGYTFAPEPIKQRLEKTWAELKQQILQ
4. MEVLKDFLLFYGGLFAITNPIGAVPVFIAVTRNLSPEKRKEIARKTSTTVMVTLLVFALVGEWIFKFFGASTDAFSIAGGIILFRMSLEMLSGKLSSVKISEEEEHISEEAVTLEEVAIIPLAIPLLSGPGAITTTMLYMAKSSTMIEKSIVLLVVVAIGITVWIILSAANRIHQKLGTIGIKVMTRMMGLILASMAVQMVINGVKGAFNI
5. MTENEFLSQEEIDKLLSDSDTGGVLTPEEKDMIGEIGNIAMGSAATTLSMILGRDIHITVPTVREEKMKNVKSDFSGEQVVVSVEYTEGLEGLNVLVLDKKLVAVIADLMMGGSGEVETEELDEIKLSAVGEAMNQMMGSAATSLSELLGITINISPPKVEI
6. MVDSHVHTPLCGHAEGHPEAYLEEARAKGLKGVVFTDHSPMPPWYDPESRMRLEALPFYLLALERVRERAQDLYVGIGLEADFHPGTEGFVAQLLRRYPFDYVIGSVHYLGAWPLDHPDHQEEYAWRDLKEVFRAYFQEVEKAARSGLFHAIGHLDLPKKFGHRLPEEALLELAEPALRAVAEAGLFLDVNTAGLRRPAKEVYPAPALLRRARELGIGLVLGSDAHRPEEVGFAFPEVQALLAGLGFREAYYFVEGSPVAYPLSRASLEHHHHHH

[A]
1. failed
2. failed
3. failed
4. failed
5. not failed
6. not failed

[Q] Given `MYTCKNKERMLMYKTIIMPVDVFEMELSDKAIRHAEFLAQDDGVIHLLHVLPGSASLSLHRFAADVRRFEEHLQHEAEERLQTMVSHFTIDPSRIKQHVRFGSVRDEVNELAKELDADVVVIGSRNPSISTHLLGSNASSVIRHANLPVLVVR` , state its recorded protein production.
[A] failed
